Biological target: T1, Human MCSP D3 (human, UniProt Q6UVK1 1582-2224)
T1 construct: Soluble analyte in SPR; The selection antigen was hu-MCSP(D3 domain)-avi-his; also called hu-MCSP(D3 domain)-avi-his
T1 sequence: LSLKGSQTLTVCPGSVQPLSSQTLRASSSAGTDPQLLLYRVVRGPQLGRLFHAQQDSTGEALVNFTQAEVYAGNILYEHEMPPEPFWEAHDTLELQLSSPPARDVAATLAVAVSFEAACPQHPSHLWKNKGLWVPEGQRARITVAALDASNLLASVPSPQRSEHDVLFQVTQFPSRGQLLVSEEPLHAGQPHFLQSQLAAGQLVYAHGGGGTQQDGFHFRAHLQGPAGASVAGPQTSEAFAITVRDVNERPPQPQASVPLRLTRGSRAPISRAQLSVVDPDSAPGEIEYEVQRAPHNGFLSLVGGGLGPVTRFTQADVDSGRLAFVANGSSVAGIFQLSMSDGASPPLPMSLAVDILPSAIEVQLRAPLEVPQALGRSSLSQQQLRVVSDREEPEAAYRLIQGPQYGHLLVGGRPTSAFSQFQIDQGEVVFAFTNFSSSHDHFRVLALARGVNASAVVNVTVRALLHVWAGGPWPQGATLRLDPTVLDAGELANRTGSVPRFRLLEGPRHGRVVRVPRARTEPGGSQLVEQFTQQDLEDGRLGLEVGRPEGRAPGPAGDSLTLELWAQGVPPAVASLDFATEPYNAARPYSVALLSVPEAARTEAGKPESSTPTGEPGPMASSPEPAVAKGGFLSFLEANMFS
Assay: SPR Biacore T200, 25 C, IgG captured on anti-human Fab, MCSP D3 as analyte, 1:1 Langmuir fit
Kd listing for selected binders.

Consider the worked cases shown below.
[[record]]
binder = "M4-3 (B8) ML2 (antibody, human IgG1, V domains shown) VH: QVQLQESGPGLVKPSQTLSLTCTVSGGSITSGYYWNWIRQHPGKGLEWIGYITFDGRNNYNPSLKSRVTISRDTSKNQFSLKLSSVTAADTAVYYCADFDYWGQGTLVTVSS VL: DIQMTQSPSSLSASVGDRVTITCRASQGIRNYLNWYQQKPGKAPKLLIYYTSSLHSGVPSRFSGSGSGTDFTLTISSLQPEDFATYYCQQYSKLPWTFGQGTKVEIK"
result = "19.2 nM"

[[record]]
binder = "M4-3 ML2 (E10) (antibody, human IgG1, V domains shown) VH: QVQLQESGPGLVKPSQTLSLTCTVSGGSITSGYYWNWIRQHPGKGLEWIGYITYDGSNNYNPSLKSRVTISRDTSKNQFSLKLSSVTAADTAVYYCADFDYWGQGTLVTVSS VL: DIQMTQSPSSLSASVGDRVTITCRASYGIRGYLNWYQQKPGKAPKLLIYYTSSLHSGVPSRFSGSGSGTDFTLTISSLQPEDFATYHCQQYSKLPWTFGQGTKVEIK"
result = "21.4 nM"

[[record]]
binder = "M4-3 (A7) ML2 (C5) (antibody, human IgG1, V domains shown) VH: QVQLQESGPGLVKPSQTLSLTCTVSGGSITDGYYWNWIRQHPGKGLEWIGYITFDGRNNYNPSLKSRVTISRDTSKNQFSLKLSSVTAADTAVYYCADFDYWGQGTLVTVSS VL: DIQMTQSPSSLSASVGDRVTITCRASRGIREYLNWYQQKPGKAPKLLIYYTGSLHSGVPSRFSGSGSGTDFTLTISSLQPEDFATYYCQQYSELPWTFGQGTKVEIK"
result = "0.002 nM"

[[record]]
binder = "M4-3 (A7) ML2 (E10) (antibody, human IgG1, V domains shown) VH: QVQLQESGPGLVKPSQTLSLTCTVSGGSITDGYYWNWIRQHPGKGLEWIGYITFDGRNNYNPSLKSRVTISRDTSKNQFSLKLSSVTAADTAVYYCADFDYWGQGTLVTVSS VL: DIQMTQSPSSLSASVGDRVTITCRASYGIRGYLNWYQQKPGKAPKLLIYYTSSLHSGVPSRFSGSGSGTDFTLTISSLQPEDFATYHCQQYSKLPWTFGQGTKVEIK"
result = "3.1 nM"


Attention now shifts to the item below.
Query :: Any idea what its Kd is? The binder is M4-3 (C1) ML2 (C5) (antibody, human IgG1, V domains shown) VH: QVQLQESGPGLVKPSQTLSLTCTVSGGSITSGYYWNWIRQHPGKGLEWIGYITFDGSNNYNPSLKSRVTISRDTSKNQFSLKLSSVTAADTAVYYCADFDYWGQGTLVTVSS VL: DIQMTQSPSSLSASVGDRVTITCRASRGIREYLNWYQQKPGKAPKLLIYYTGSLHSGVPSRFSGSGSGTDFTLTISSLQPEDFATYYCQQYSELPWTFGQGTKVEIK
Result :: 0.003 nM
